- Tested on: OVCAR-5 complex spheroid (HUVEC/MSC), viability % T/C
- Method Notes: Anticancer human tumor OVCAR-5 cell line growth inhibition [Asc];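 also: spheroids exposed to agents for 7 days before readout; 100% = DMSO vehicle-treated wells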
- Assay Conditions: second compound 0.316 µM; first compound 1 µM; stronger effect = lower value
Experimental Readout: viability, T/C

Asked: # query: viability, T/C of entry C#Cc1c(F)ccc2cc(O)cc(-c3ncc4c(N5CC6CCC(C5)N6)nc(OCC56CCCN5CC(F)C6)nc4c3F)c12 (stereo not drawn) + Cc1c(S(C)(=O)=O)c(-c2cc(F)cc(N3CCN(c4ccc(NS(=O)(=O)c5ccc(NC(CCN6CCC(C(=O)OCCCP(=O)(O)O)CC6)CSc6ccccc6)c(S(=O)(=O)C(F)(F)F)c5)cc4)CC3)c2)c(-c2ccc(Cl)cc2)n1C(C)C
Given back: 80.1%

Asked: Okay, and O=C(c1cc(Cc2n[nH]c(=O)c3ccccc23)ccc1F)N1CCN(C(=O)C2CC2)CC1 + Cc1c(S(C)(=O)=O)c(-c2cc(F)cc(N3CCN(c4ccc(NS(=O)(=O)c5ccc(NC(CCN6CCC(C(=O)OCCCP(=O)(O)O)CC6)CSc6ccccc6)c(S(=O)(=O)C(F)(F)F)c5)cc4)CC3)c2)c(-c2ccc(Cl)cc2)n1C(C)C ?
Given back: 79.6%

Asked: Cool, now CNC(C)C(=O)NC1CN(S(=O)(=O)c2cccc(S(=O)(=O)N3CCC4CCC(C(=O)NC(c5ccccc5)c5ccccc5)N4C(=O)C(NC(=O)C(C)NC)C3)c2)CCC2CCC(C(=O)NC(c3ccccc3)c3ccccc3)N2C1=O (stereo not drawn) + Cc1c(S(C)(=O)=O)c(-c2cc(F)cc(N3CCN(c4ccc(NS(=O)(=O)c5ccc(NC(CCN6CCC(C(=O)OCCCP(=O)(O)O)CC6)CSc6ccccc6)c(S(=O)(=O)C(F)(F)F)c5)cc4)CC3)c2)c(-c2ccc(Cl)cc2)n1C(C)C
Given back: 81%
